Source listed as patent US20130196915.

# SYSTEM_UNDER_TEST: PDGF-BB (Homo sapiens, UniProt P01127 P01127:82-190)
# Sequence (P01127 82-190, one chain of several): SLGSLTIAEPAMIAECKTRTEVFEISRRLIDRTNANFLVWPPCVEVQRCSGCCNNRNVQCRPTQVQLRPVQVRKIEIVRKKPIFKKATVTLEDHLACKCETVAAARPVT
# PROTOCOL_TEXT: SPR; PBS pH 7.4, 0.05% Tween 20; equilibrium analysis
# PARTICULARS: tags: R&D Systems; amine-coupled to SPR chip; chain copies: 2 (inferred, homodimer)
pKd: −log10 of the molar value.
MEASUREMENT_NAME: pKd

| BINDER | MEASUREMENT |
| --- | --- |
| GCGATACTCCACAGGCTACGGCACGTAGAGCATCACCATGATCCCA (ssDNA) [M2] | 6.96 |
| GCGATACTCCACAGGCTACGGCACGTAGAGCATCACCATGATCTCA (ssDNA) [M3] | 6.45 |
| GCGATACTCCACAGGCTACGGCACGTAGAGCATCACCATGATCCTA (ssDNA) [M1] | 7.56 |
